# maps each entry to its EC50 at 48 h
ASSAY DETAILS: Cytotoxicity against HEK293 cells assessed as reduction in cell viability after 48 hrs by alamar blue assay
Type: toxicity, cell-based
CONDITION NOTES: human
Please state the figure in µM; there is no need to write the unit.

Some solved cases for reference:
{"columns": ["SUBSTANCE SMILES", "EC50 at 48 h [µM]"],
 "data": [
  ["Cc1cccc(S(=O)(=O)Nc2ccc(-c3nc4cc(NS(=O)(=O)c5cccc(C)c5)ccc4o3)cc2)c1", 65],
  ["O=S(=O)(Nc1ccc(-c2nc3cc(NS(=O)(=O)c4ccc5nsnc5c4)ccc3o2)cc1)c1ccc2nsnc2c1", 76]
]}

Continue with the compound presented below.
Q. // EC50 at 48 h lookup, key: Nc1ccccc1S(=O)(=O)Nc1ccc(-c2nc3cc(NS(=O)(=O)c4ccccc4N)ccc3o2)cc1
A. 14

---

# maps each entry to its log10 IC50
TARGET OR TEST SYSTEM: E. coli GroEL/ES (Escherichia coli)
ASSAY DETAILS: Inhibition of Escherichia coli GroEL/GroES-ATPase activity expressed in Escherichia coli DH5alpha/BL21 (DE3) assessed as inhibition of denatured MDH refolding preincubated for 10 mins followed by ATP addition measured after 20 to 40 mins by malachite green dye based fluorescence assay
Lab note - IC50 converted to log10 from values in µM.

Q. # get_value(readout= log10 IC50, system= E. coli GroEL/ES (Escherichia coli)) for O=S(=O)(Nc1ccc(-c2nc3cc(NS(=O)(=O)c4ccc5ncsc5c4)ccc3o2)cc1)c1ccc2ncsc2c1
A. -0.26

Q. # get_value(readout= log10 IC50, system= E. coli GroEL/ES (Escherichia coli)) for O=S(=O)(Nc1ccc(-c2nc3cc(NS(=O)(=O)c4ccc(O)cc4)ccc3o2)cc1)c1ccc(O)cc1
A. -0.51

Q. # get_value(readout= log10 IC50, system= E. coli GroEL/ES (Escherichia coli)) for Nc1ccc(S(=O)(=O)Nc2ccc(-c3nc4cc(NS(=O)(=O)c5ccc(N)cc5)ccc4o3)cc2)cc1
A. 0.23

---

TARGET OR TEST SYSTEM: E. coli GroEL/ES (Escherichia coli, UniProt P0A6F5)
Sequence (P0A6F5 whole entry, looked up): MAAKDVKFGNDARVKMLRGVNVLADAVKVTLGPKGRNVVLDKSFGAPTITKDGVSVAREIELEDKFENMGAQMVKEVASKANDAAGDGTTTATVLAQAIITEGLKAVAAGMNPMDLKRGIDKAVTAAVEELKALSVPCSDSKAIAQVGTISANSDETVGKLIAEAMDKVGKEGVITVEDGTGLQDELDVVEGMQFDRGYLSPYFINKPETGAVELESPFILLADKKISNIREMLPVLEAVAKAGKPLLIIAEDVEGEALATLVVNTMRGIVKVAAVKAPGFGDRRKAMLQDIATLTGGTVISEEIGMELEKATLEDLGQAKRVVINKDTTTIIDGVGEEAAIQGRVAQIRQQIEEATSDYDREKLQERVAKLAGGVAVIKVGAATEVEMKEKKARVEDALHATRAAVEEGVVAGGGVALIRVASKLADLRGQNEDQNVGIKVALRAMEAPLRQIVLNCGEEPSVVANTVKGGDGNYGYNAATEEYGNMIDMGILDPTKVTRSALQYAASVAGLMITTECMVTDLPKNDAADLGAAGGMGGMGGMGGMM
ASSAY DETAILS: Inhibition of Escherichia coli GroEL/GroES expressed in Escherichia coli DH5alpha/BL21 (DE3) assessed as inhibition of denatured MDH refolding preincubated for 10 mins followed by ATP addition measured after 20 to 40 mins by fluorescence based assay
# maps each entry to its IC50
Please state the figure in µM; there is no need to write the unit.

Q. // IC50 lookup, key: Cc1ccc(C(=O)Nc2ccc(S(=O)(=O)O)c3cc(S(=O)(=O)O)cc(S(=O)(=O)O)c23)cc1NC(=O)c1cccc(NC(=O)Nc2cccc(C(=O)Nc3cc(C(=O)Nc4ccc(S(=O)(=O)O)c5cc(S(=O)(=O)O)cc(S(=O)(=O)O)c45)ccc3C)c2)c1
A. 7.9

---

TARGET OR TEST SYSTEM: E. coli GroEL/ES (Escherichia coli, UniProt P0A6F5)
ASSAY DETAILS: Inhibition of Escherichia coli GroEL/GroES-ATPase activity expressed in Escherichia coli DH5alpha/BL21 (DE3) assessed as inhibition of denatured MDH refolding preincubated for 10 mins followed by ATP addition measured after 20 to 40 mins by malachite green dye based fluorescence assay
QUANTITY: pIC50
Hey, just a heads up that pIC50 is the negative log base 10 of the concentration in molar.

Q. # get_value(readout= pIC50, system= E. coli GroEL/ES (Escherichia coli, UniProt P0A6F5)) for O=S(=O)(Nc1ccc(-c2nc3cc(NS(=O)(=O)c4cccc5nsnc45)ccc3o2)cc1)c1cccc2nsnc12
A. 3.90

Q. # get_value(readout= pIC50, system= E. coli GroEL/ES (Escherichia coli, UniProt P0A6F5)) for O=S(=O)(Nc1ccc(-c2nc3cc(NS(=O)(=O)c4ccc5nsnc5c4)ccc3o2)cc1)c1ccc2nsnc2c1
A. 5.77

Q. # get_value(readout= pIC50, system= E. coli GroEL/ES (Escherichia coli, UniProt P0A6F5)) for O=S(=O)(Nc1ccc(-c2nc3cc(NS(=O)(=O)c4ccccc4Cl)ccc3o2)cc1)c1ccccc1Cl
A. 3.88

Q. # get_value(readout= pIC50, system= E. coli GroEL/ES (Escherichia coli, UniProt P0A6F5)) for COc1ccc(S(=O)(=O)Nc2ccc(-c3nc4cc(NS(=O)(=O)c5ccc(OC)cc5)ccc4o3)cc2)cc1
A. 4.08

---

# maps each entry to its EC50 at 48 h
ASSAY DETAILS: Cytotoxicity against HEK293 cells assessed as reduction in cell viability after 48 hrs by alamar blue assay
Type: toxicity, cell-based
CONDITION NOTES: human
Please state the figure in µM; there is no need to write the unit.

{"columns": ["SUBSTANCE SMILES", "U", "EC50 at 48 h"],
 "data": [
  ["O=[N+]([O-])c1ccccc1S(=O)(=O)Nc1ccc(-c2nc3cc(NS(=O)(=O)c4ccccc4[N+](=O)[O-])ccc3o2)cc1", "µM", 60],
  ["O=S(=O)(Nc1ccc(-c2nc3cc(NS(=O)(=O)c4cccc(O)c4)ccc3o2)cc1)c1cccc(O)c1", "µM", 36],
  ["O=[N+]([O-])c1ccc(S(=O)(=O)Nc2ccc(-c3nc4cc(NS(=O)(=O)c5ccc([N+](=O)[O-])cc5)ccc4o3)cc2)cc1", "µM", 59]
]}

Q. // EC50 at 48 h lookup, key: O=S(=O)(Nc1ccc(-c2nc3cc(NS(=O)(=O)c4cccs4)ccc3o2)cc1)c1cccs1
A. 26

Q. // EC50 at 48 h lookup, key: O=S(=O)(Nc1ccc(-c2nc3cc(NS(=O)(=O)c4ccc(Cl)cc4)ccc3o2)cc1)c1ccc(Cl)cc1
A. 13

Q. // EC50 at 48 h lookup, key: O=S(=O)(Nc1ccc(-c2nc3cc(NS(=O)(=O)c4ccccc4C(F)(F)F)ccc3o2)cc1)c1ccccc1C(F)(F)F
A. 66

Q. // EC50 at 48 h lookup, key: O=S(=O)(Nc1ccc(-c2nc3cc(NS(=O)(=O)c4ccccc4Br)ccc3o2)cc1)c1ccccc1Br
A. 28

Q. // EC50 at 48 h lookup, key: N#Cc1ccc(S(=O)(=O)Nc2ccc(-c3nc4cc(NS(=O)(=O)c5ccc(C#N)cc5)ccc4o3)cc2)cc1
A. 45

Q. // EC50 at 48 h lookup, key: COc1cccc(S(=O)(=O)Nc2ccc(-c3nc4cc(NS(=O)(=O)c5cccc(OC)c5)ccc4o3)cc2)c1
A. 28

---

# maps each entry to its pIC50
TARGET OR TEST SYSTEM: E. coli GroEL/ES (Escherichia coli, UniProt P0A6F5)
ASSAY DETAILS: Inhibition of Escherichia coli GroEL/GroES expressed in Escherichia coli DH5alpha/BL21 (DE3) assessed as inhibition of denatured MDH refolding preincubated for 10 mins followed by ATP addition measured after 20 to 40 mins by fluorescence based assay
Hey, just a heads up that pIC50 is the negative log base 10 of the concentration in molar.

Some solved cases for reference:
{"columns": ["SUBSTANCE SMILES", "pIC50"],
 "data": [
  ["O=S(=O)(Nc1ccc(-c2nc3cc(NS(=O)(=O)c4ccc(C(F)(F)F)cc4)ccc3o2)cc1)c1ccc(C(F)(F)F)cc1", 4.46],
  ["Nc1ccccc1S(=O)(=O)Nc1ccc(-c2nc3cc(NS(=O)(=O)c4ccccc4N)ccc3o2)cc1", 5.00],
  ["O=S(=O)(Nc1ccc(-c2nc3cc(NS(=O)(=O)c4ccc(Cl)cc4)ccc3o2)cc1)c1ccc(Cl)cc1", 4.64],
  ["O=S(=O)(Nc1ccc(-c2nc3cc(NS(=O)(=O)c4ccc(F)cc4)ccc3o2)cc1)c1ccc(F)cc1", 5.42],
  ["N#Cc1ccccc1S(=O)(=O)Nc1ccc(-c2nc3cc(NS(=O)(=O)c4ccccc4C#N)ccc3o2)cc1", 4.49],
  ["O=S(=O)(Nc1ccc(-c2nc3cc(NS(=O)(=O)c4ccc5ncsc5c4)ccc3o2)cc1)c1ccc2ncsc2c1", 6.09],
  ["O=S(=O)(Nc1ccc(-c2nc3cc(NS(=O)(=O)C(F)(F)F)ccc3o2)cc1)C(F)(F)F", 4.40]
]}

Continue with the compound presented below.
Q. # get_value(readout= pIC50, system= E. coli GroEL/ES (Escherichia coli, UniProt P0A6F5)) for O=S(=O)(Nc1ccc(-c2nc3cc(NS(=O)(=O)c4cccc(Br)c4)ccc3o2)cc1)c1cccc(Br)c1
A. 4.64

---

TARGET OR TEST SYSTEM: HSP60/HSP10 (Homo sapiens, UniProt P10809)
Sequence (P10809 whole entry): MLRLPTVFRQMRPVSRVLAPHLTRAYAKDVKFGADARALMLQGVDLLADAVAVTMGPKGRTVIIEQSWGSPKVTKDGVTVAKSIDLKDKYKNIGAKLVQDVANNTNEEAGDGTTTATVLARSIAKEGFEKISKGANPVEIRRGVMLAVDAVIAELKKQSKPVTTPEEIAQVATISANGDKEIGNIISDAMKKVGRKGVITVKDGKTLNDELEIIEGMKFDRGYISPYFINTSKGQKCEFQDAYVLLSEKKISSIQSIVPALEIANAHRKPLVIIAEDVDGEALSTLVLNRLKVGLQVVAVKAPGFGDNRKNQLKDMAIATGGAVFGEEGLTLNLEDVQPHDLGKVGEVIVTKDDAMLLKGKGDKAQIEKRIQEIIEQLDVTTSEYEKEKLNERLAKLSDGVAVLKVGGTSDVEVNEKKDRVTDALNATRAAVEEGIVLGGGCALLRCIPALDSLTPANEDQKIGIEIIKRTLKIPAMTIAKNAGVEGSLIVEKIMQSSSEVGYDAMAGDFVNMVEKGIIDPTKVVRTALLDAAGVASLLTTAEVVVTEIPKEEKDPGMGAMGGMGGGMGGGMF
Sequence (P61604 whole entry, further chain): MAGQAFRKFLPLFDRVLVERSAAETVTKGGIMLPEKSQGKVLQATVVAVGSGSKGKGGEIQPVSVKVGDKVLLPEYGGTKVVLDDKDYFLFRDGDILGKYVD
ASSAY DETAILS: Inhibition of human mitochondrial HSP60/HSP10 expressed in Escherichia coli DH5alpha/BL21 (DE3) assessed as inhibition of denatured MDH refolding preincubated for 10 mins followed by ATP addition measured after 40 to 60 mins by fluorescence based assay
QUANTITY: pIC50
Hey, just a heads up that pIC50 is the negative log base 10 of the concentration in molar.

Some solved cases for reference:
{"columns": ["SUBSTANCE SMILES", "QUANTITY", "RECORDED RESULT"],
 "data": [
  ["O=S(=O)(Nc1ccc(-c2nc3cc(NS(=O)(=O)c4ccc(O)cc4)ccc3o2)cc1)c1ccc(O)cc1", "pIC50", 4.96],
  ["O=[N+]([O-])c1ccccc1S(=O)(=O)Nc1ccc(-c2nc3cc(NS(=O)(=O)c4ccccc4[N+](=O)[O-])ccc3o2)cc1", "pIC50", 4.12],
  ["O=S(=O)(Nc1ccc(-c2nc3cc(NS(=O)(=O)c4cccc5nonc45)ccc3o2)cc1)c1cccc2nonc12", "pIC50", 4.18],
  ["O=S(=O)(Nc1ccc(-c2nc3cc(NS(=O)(=O)c4cccc5nsnc45)ccc3o2)cc1)c1cccc2nsnc12", "pIC50", 4.01],
  ["O=S(=O)(Nc1ccc(-c2nc3cc(NS(=O)(=O)c4cccc(O)c4)ccc3o2)cc1)c1cccc(O)c1", "pIC50", 4.72]
]}

Q. # get_value(readout= pIC50, system= HSP60/HSP10 (Homo sapiens, UniProt P10809)) for O=S(=O)(Nc1ccc(-c2nc3cc(NS(=O)(=O)c4ccc(C(F)(F)F)cc4)ccc3o2)cc1)c1ccc(C(F)(F)F)cc1
A. 4.21

Q. # get_value(readout= pIC50, system= HSP60/HSP10 (Homo sapiens, UniProt P10809)) for O=[N+]([O-])c1cccc(S(=O)(=O)Nc2ccc(-c3nc4cc(NS(=O)(=O)c5cccc([N+](=O)[O-])c5)ccc4o3)cc2)c1
A. 4.22

Q. # get_value(readout= pIC50, system= HSP60/HSP10 (Homo sapiens, UniProt P10809)) for O=c1ccc2cc(S(=O)(=O)Nc3ccc(-c4nc5cc(NS(=O)(=O)c6ccc7oc(=O)ccc7c6)ccc5o4)cc3)ccc2o1
A. 4.15

Data origin: ChEMBL document CHEMBL3856280
